Biological target: human EGF-R (Homo sapiens, UniProt P00533)
Sequence (P00533 25-1210): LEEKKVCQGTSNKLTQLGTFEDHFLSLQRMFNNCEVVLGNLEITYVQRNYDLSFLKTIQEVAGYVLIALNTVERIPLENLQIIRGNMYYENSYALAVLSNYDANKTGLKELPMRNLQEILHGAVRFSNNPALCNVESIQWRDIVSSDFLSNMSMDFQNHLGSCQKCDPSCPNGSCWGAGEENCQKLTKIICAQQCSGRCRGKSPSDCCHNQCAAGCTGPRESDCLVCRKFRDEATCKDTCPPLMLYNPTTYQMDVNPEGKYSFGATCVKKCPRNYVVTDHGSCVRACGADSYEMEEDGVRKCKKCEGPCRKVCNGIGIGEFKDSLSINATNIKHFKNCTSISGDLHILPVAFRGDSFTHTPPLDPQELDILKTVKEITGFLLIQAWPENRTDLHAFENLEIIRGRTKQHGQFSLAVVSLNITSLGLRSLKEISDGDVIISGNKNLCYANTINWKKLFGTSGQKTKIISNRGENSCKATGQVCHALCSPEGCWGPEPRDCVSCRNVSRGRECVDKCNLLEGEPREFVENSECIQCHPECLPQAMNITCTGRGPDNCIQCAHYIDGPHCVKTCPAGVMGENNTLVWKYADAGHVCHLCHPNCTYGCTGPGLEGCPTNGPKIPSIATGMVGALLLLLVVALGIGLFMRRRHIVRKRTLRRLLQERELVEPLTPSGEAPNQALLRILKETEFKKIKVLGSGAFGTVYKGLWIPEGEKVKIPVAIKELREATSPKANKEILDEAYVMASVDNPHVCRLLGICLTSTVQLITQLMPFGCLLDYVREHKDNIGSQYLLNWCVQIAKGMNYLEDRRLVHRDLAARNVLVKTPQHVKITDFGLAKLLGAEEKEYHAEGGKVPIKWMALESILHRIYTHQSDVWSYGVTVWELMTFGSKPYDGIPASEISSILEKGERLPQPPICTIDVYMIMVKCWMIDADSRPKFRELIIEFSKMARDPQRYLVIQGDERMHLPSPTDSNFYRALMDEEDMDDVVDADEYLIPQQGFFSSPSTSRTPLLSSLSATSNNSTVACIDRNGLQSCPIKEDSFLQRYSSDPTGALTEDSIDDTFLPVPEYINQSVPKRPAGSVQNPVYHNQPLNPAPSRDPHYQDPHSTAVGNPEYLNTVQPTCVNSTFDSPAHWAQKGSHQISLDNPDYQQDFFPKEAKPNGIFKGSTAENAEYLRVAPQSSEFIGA
Experiment: Inhibition of EGFR-dependent proliferation (EGF-stimulated murine haematopoietic cell line expressing human EGF-R)
Settings: 20 ng/ml human EGF, 48 hours at 37° C., Cell Titer 96 AQueous assay
pIC50: −log10 of the molar value.
READOUT_KIND: pIC50

COMPOUND | pIC50
COc1cc2ncnc(Nc3cccc(Cl)c3F)c2cc1O[C@H]1CC[C@]2(CC1)C(=O)N(C)CCN2C [2(1)] | 8.70
COc1cc2ncnc(Nc3cccc(Cl)c3F)c2cc1O[C@H]1CC[C@]2(CC1)NCCNC2=O [1(2)] | 8.70
COc1cc2ncnc(Nc3cccc(Cl)c3F)c2cc1O[C@H]1CC[C@@]2(CC1)NCCNC2=O [Example 1] | 8.40

1. COc1cc2ncnc(Nc3cccc(Cl)c3F)c2cc1O[C@H]1CC[C@@]2(CC1)NCCN(C)C2=O [1(1)]
2. COc1cc2ncnc(Nc3cccc(Cl)c3F)c2cc1O[C@H]1CC[C@]2(CC1)C(=O)NCCN2C [Example 2]
# returns the entry with the larger pIC50; inputs 1 and 2 Identify your pick by its label. 2
